# credit: patent US20150265516A1

# EXPERIMENTAL TARGET: T1, purified human integrin αvβ3 from term placenta (human, UniProt P06756 31-1048; P05106 27-788)
# T1 construct: mature; also called human placental αvβ3; vitronectin receptor avβ3
# T1 sequence (P06756 31-1048, form in doubt, chain 1 of 2): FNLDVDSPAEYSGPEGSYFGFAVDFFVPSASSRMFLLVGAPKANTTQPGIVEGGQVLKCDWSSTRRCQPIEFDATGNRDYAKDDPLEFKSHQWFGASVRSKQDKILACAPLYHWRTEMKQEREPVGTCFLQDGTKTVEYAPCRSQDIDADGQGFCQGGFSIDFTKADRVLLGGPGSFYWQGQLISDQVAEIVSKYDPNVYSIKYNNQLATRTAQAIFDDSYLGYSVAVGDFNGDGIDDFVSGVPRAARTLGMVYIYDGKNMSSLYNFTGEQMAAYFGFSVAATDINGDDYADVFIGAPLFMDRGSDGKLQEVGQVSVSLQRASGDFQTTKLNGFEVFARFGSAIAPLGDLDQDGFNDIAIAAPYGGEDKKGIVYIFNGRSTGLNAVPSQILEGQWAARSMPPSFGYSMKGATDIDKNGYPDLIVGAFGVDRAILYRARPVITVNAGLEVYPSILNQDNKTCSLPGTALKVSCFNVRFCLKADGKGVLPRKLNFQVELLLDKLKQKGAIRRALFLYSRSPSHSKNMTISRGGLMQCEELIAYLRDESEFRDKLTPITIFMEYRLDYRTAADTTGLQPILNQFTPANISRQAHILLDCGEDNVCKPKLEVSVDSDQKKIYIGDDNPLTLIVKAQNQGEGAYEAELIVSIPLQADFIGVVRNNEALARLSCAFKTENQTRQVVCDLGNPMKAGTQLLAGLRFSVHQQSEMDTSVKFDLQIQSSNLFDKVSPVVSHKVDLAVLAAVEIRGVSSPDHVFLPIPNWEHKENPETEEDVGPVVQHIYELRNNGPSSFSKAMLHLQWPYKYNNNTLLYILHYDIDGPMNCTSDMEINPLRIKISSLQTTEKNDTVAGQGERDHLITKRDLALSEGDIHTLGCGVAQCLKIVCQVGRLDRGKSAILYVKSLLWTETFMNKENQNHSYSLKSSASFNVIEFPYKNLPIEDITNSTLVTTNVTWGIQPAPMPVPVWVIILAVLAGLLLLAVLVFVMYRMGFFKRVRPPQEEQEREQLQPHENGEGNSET
# T1 sequence (P05106 27-788, form in doubt, chain 2 of 2): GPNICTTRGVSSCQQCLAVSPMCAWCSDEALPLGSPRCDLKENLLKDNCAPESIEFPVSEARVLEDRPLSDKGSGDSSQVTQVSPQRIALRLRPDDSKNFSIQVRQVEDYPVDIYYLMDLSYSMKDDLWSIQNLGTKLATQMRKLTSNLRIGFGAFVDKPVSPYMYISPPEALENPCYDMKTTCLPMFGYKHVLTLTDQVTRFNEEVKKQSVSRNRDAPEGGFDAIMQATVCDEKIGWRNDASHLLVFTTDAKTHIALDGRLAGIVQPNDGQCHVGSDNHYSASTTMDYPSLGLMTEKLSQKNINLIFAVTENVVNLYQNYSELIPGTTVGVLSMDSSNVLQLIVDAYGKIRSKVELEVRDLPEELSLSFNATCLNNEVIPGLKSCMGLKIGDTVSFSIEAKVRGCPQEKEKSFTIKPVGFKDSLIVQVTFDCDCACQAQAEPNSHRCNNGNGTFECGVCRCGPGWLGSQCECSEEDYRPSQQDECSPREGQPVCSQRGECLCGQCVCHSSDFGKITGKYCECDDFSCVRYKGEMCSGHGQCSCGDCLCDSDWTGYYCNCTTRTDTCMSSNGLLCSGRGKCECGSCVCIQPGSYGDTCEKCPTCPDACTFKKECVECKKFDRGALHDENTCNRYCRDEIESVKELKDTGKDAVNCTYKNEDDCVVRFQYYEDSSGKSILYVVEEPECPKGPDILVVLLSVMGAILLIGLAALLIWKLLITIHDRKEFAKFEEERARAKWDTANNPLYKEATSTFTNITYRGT
# MEASUREMENT DESCRIPTION: receptor inhibition assay: coated placental αvβ3, competitor ligand biotinylated vitronectin
pIC50: −log10 of the molar value. Starred links: 1 amine or outer side, 2 acyl side, 3 side chain; linkers in the order of their positions; H or OH if unused. Non-standard residues stand in square brackets, D forms with d. Primed or numbered codes have the meaning given here. Nhdg = N-hexadecylglycine, CCCCCCCCCCCCCCCCN(CC(=O)[*:2])[*:1]; Aib′ = 3-aminoisobutyric acid (as defined by the filing); Ac6c = NC1(C(=O)O)CCCCC1; Ac5c = NC1(C(=O)O)CCCC1
MEASUREMENT LABEL: pIC50

Worked set:
BINDER: RGDFG (head-to-tail cyclic (homodetic)) [Cyclo(Arg-Gly-Asp-Phe-Gly)]
EXPERIMENTAL VALUE: 6.40
//
BINDER: cyclo(RGD[dF][Aib′]) (X = non-natural residue Aib) [Cyclo-(Arg-Gly-Asp-DPhe-Aib)]
EXPERIMENTAL VALUE: 7.70
//
BINDER: cyclo(RGD[dF][Ac6c]) (SMILES N=C(N)NCCC[C@@H]1NC(=O)C2(CCCCC2)NC(=O)[C@@H](Cc2ccccc2)NC(=O)[C@H](CC(=O)O)NC(=O)CNC1=O, X = non-natural residue Acha; also called CPPC 1; Cyclopeptide) [Cyclo-(Arg-Gly-Asp-DPhe-Acha)]
EXPERIMENTAL VALUE: 8.70
//
BINDER: cyclo(RGDF[Nhdg]) (SMILES CCCCCCCCCCCCCCCCN1CC(=O)N[C@@H](CCCNC(=N)N)C(=O)NCC(=O)N[C@@H](CC(=O)O)C(=O)N[C@@H](Cc2ccccc2)C1=O, Phe at 4 is printed without D; residue 5 is glycine carrying an N-hexadecyl group) [Cyclo-(Arg-Gly-Asp-Phe-Nhdg)]
EXPERIMENTAL VALUE: 8.10

P = cyclo(RGD[dF][Ac5c]) (X = non-natural residue Acpa) [Cyclo-(Arg-Gly-Asp-DPhe-Acpa)]
Q = cyclo(RGD[dF]X) (not fully specified (residue 5); printed as Cyclo-(Arg-Gly-Asp-DPhe-hPro), X = non-natural residue hPro) [Cyclo-(Arg-Gly-Asp-DPhe-hPro)]
Q. Just curious, which one has the larger pIC50 reading, P or Q ? API: response body contains the label of the selected item.
A. P
